Test: Volume of distribution in mouse
Format: ADME, organism-based
Conditions: in vivo
Hi there, I'd appreciate the recorded Vd for every entry that follows.
Just the number please, in L/kg, no unit attached.

For record COc1ccc(C(C)C)cc1-c1ccc(C(F)(F)F)cc1CN1C[C@@H](c2cc(C(F)(F)F)cc(C(F)(F)F)c2)OC1=O the listed Vd is 3.4

For record COC(=O)N(Cc1cc(C(F)(F)F)cc(C(F)(F)F)c1)Cc1cc(C(F)(F)F)ccc1-c1cc(C(C)C)ccc1OC the listed Vd is 3.3

====

Species on record: Mus musculus
Assay: Clearance in mouse
Assay type: ADME, organism-based
Details: in vivo
Quantity Name: clearance (mL/min/kg)
Just the number please, in mL/min/kg, no unit attached.

For record COc1ccc(C(C)C)cc1-c1ccc(C(F)(F)F)cc1CN1C[C@@H](c2cc(C(F)(F)F)cc(C(F)(F)F)c2)OC1=O the listed clearance is 31.6

====

Assay: Oral bioavailability in mouse
Type: ADME, organism-based
Conditions: in vivo
Quantity Name: bioavailability (%)
Just the number please, in %, no unit attached.

For record COC(=O)N(Cc1cc(C(F)(F)F)cc(C(F)(F)F)c1)Cc1cc(C(F)(F)F)ccc1-c1cc(C(C)C)ccc1OC the listed bioavailability is 5

For record COc1ccc(C(C)C)cc1-c1ccc(C(F)(F)F)cc1CN1C[C@@H](c2cc(C(F)(F)F)cc(C(F)(F)F)c2)OC1=O the listed bioavailability is 4

====

Target chain: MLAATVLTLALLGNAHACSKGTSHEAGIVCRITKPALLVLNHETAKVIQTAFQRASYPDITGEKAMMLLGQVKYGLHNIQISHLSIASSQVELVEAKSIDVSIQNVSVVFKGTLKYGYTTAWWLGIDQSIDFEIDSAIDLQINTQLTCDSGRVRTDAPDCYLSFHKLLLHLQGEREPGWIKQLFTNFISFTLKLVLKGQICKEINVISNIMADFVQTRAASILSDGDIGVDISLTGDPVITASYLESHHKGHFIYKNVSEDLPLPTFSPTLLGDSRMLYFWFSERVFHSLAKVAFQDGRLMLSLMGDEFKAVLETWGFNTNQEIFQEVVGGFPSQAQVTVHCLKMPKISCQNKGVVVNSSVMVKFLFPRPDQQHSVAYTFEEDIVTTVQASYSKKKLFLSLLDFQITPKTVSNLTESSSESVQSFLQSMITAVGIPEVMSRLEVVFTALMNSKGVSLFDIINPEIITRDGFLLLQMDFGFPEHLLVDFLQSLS
Quantity Name: IC50

For record COc1ccc(C(C)C)cc1-c1ccc(C(F)(F)F)cc1CN1C(=O)OCC1c1cc(C(F)(F)F)cc(C(F)(F)F)c1 (racemic) the listed IC50 is 14.2 µM

meta.source: ChEMBL document CHEMBL1949640
